# Target or test system: F508delCFTR (Homo sapiens, UniProt P13569, DEL508-508)
# Construct: expressed in transfected cells; host or cells: CFBE41o- human lung-derived epithelial cells (CFBE4lo-F508delCFTR-HRP), doxycycline-inducible
# Sequence (P13569 with tags, fused parts or gaps DEL508-508): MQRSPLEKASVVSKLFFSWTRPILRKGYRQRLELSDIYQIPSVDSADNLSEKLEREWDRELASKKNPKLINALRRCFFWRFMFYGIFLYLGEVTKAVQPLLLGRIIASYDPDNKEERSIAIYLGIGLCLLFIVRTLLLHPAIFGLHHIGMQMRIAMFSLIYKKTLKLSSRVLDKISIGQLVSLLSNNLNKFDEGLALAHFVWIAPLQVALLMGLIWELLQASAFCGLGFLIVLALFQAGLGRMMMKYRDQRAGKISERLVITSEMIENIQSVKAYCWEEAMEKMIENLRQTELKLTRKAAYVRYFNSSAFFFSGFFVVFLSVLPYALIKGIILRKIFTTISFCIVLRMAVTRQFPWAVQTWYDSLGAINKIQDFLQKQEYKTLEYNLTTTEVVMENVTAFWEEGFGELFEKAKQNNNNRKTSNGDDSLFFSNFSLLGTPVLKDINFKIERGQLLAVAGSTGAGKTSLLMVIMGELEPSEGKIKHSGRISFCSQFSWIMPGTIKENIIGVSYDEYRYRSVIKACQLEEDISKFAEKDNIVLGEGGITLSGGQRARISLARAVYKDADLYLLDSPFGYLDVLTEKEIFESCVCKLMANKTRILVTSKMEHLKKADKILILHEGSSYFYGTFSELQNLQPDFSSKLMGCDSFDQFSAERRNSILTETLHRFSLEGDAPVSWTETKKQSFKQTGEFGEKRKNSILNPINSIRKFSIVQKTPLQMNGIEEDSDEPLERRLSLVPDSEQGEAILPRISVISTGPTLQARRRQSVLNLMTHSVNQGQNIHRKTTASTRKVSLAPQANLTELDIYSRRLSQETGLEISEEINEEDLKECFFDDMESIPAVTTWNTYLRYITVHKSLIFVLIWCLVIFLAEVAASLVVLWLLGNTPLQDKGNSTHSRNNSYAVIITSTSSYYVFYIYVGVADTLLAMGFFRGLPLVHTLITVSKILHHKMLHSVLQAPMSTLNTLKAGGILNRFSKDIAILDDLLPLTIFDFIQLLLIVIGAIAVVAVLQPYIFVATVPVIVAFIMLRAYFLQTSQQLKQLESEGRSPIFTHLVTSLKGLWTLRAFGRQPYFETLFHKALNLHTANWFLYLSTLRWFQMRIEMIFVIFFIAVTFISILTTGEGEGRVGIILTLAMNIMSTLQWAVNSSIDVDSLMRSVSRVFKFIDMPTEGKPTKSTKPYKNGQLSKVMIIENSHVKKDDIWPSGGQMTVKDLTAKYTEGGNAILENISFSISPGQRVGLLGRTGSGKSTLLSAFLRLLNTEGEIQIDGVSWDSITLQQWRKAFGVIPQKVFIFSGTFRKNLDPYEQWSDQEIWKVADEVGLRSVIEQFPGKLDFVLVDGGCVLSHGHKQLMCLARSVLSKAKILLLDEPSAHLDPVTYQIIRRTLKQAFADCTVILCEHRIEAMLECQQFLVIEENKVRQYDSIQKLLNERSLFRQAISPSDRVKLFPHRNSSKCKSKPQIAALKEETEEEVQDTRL
# Assay: Cell Surface Expression-Horse Radish Peroxidase (CSE-HRP) Assay;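 on Maximum % activity (without co-corrector): percent of the 2 µM on-plate positive control corrector response above DMSO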
# Format: cell-based
# Test settings: CSE-HRP; without co-corrector; maximum at any tested concentration, normalized to on-plate positive control; read-out: Maximum % activity (without co-corrector)
# Method: Cell Surface Expression-Horse Radish Peroxidase (CSE-HRP) Assay The development was achieved by expressing the F508delCFTR mutation along with a horseradish peroxidase (HRP) in the fourth exofacial loop, and then measuring the HRP activity using luminescence readout from these cells, CFBE4lo-F508delCFTR-HRP, that were incubated overnight with the test corrector compounds, either without or with the co-corrector. […] The raw counts from the experiment were analyzed using Accelrys® Assay Explorer v3.3. […]
Measurement kind: Emax

Compound	Measurement kind	Result value
COc1ccc(C(C)(C)C)cc1CN[C@H]1[C@H](C(C)(C)C)[C@@H](C(=O)O)N(C(=O)C2CCC2)[C@H]1c1ccccc1 [II-313]	Emax	> 200%
COc1ccc(C(C)(C)C)cc1CN[C@H]1[C@H](C(C)(C)C)[C@@H](C(=O)O)N(C(=O)C2CCc3ccccc3O2)[C@H]1c1ccccc1 (single isomer, unassigned) [II-164]	Emax	> 200%

Ask: Emax for COc1ccc(C(C)(C)C)cc1CN[C@H]1[C@H](C(C)(C)C)[C@@H](C(=O)O)N(C(=O)CC2CCC(F)(F)CC2)[C@H]1c1ccccc1 [II-188] ?
Result: > 200%

Ask: Try this compound next: CC(C)(C)[C@H]1[C@H](Nc2cc(C#N)cnc2Cl)[C@H](c2ccccc2)N(C(=O)C2CCCCC2)[C@@H]1C(=O)O [II-145]
Result: 100 to 200%

Ask: Try this compound next: COc1ccc(Cc2ccccc2)cc1CN[C@H]1[C@H](C(C)(C)C)[C@@H](C(=O)O)N(C(=O)C2CCCCC2)[C@H]1c1ccccc1 [II-191]
Result: > 200%

###

// reported EC50 for each item listed
# Target or test system: F508delCFTR (Homo sapiens, UniProt P13569, DEL508-508)
# Construct: expressed in transfected cells; host or cells: CFBE41o- human lung-derived epithelial cells (CFBE4lo-F508delCFTR-HRP), doxycycline-inducible
# Assay: Cell Surface Expression-Horse Radish Peroxidase (CSE-HRP) Assay
# Assay type: cell-based
# Test settings: with co-corrector (2 μM of 3-[(2R,4R)-4-({[1-(2,2-difluoro-1,3-benzodioxol-5-yl)cyclopropyl]carbonyl}amino)-7-methoxy-3,4-dihydro-2H-chromen-2-yl]benzoic acid); read-out: EC50 (with co-corrector)
# Protocol: Cell Surface Expression-Horse Radish Peroxidase (CSE-HRP) Assay The development was achieved by expressing the F508delCFTR mutation along with a horseradish peroxidase (HRP) in the fourth exofacial loop, and then measuring the HRP activity using luminescence readout from these cells, CFBE4lo-F508delCFTR-HRP, that were incubated overnight with the test corrector compounds, either without or with the co-corrector. […] The raw counts from the experiment were analyzed using Accelrys® Assay Explorer v3.3. […]

As a guide, the following entries are already answered.
Compound	EC50
COc1ccc(C(C)(C)C)cc1CN[C@H]1[C@H](C(C)(C)C)[C@@H](C(=O)O)N(C(=O)[C@@H]2C[C@H]3CC[C@@H]2O3)[C@H]1c1ccccc1 (relative stereo) [Example I-241]	1000 to 10000 nM
COc1ccc(C(F)(F)F)nc1CN[C@H]1[C@H](C(C)(C)C)[C@@H](C(=O)O)N(C(=O)C2CCCCC2)[C@H]1c1ccccc1 [II-408]	1000 to 10000 nM
COc1cc(Cl)ccc1CN[C@H]1[C@H](C(C)(C)C)[C@@H](C(=O)O)N(C(=O)C2CCCCC2)[C@H]1c1ncccc1OC (racemic) [III-143]	> 10000 nM
COc1ncc(C2CCCC2)cc1CN[C@H]1[C@H](C(C)(C)OC)[C@@H](C(=O)O)N(C(=O)C2CCCCC2)[C@H]1c1ccccc1 [Example I-116]	< 1000 nM

Ask: For F508delCFTR (Homo sapiens, UniProt P13569, DEL508-508), provide EC50 of COc1nc(C(C)(C)C)ccc1CN[C@H]1[C@H](C(C)(C)C)[C@@H](C(=O)O)N(C(=O)Cc2ccccc2C)[C@H]1c1ccccc1C(C)C [II-427] please.
Result: < 1000 nM

Ask: Try this compound next: COc1ncc([Si](C)(C)C)cc1CN[C@H]1[C@H](C(C)(C)C)[C@@H](C(=O)O)N(C(=O)[C@@H]2CCCC(F)(F)C2)[C@H]1c1ccccc1 [Example I-189]
Result: < 1000 nM

###

// reported Emax for each item listed
# Target or test system: F508delCFTR (Homo sapiens, UniProt P13569, DEL508-508)
# Construct: expressed in transfected cells; host or cells: CFBE41o- human lung-derived epithelial cells (CFBE4lo-F508delCFTR-HRP), doxycycline-inducible
# Assay: Cell Surface Expression-Horse Radish Peroxidase (CSE-HRP) Assay;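 on Maximum % activity (without co-corrector): percent of the 2 µM on-plate positive control corrector response above DMSO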
# Assay type: cell-based
# Test settings: CSE-HRP; without co-corrector; maximum at any tested concentration, normalized to on-plate positive control; read-out: Maximum % activity (without co-corrector)

As a guide, the following entries are already answered.
Compound	Measurement kind	Result value
COc1ccc(C(F)(F)F)cc1CN[C@@H]1[C@@H](C(C)(C)C)[C@H](C(=O)O)N(C(=O)C2COCCO2)[C@@H]1c1ccccc1 (mixture of isomers) [II-85]	Emax	< 100%
COc1cc(C(F)(F)F)ccc1CN[C@@H]1[C@@H](C(C)(C)OC)[C@H](C(=O)O)N(C(=O)C2CCCCC2)[C@@H]1c1ccccc1 (racemic) [II-88]	Emax	100 to 200%
CC(C)(C)[C@H]1[C@H](NCc2cc(Cl)ccc2Cl)[C@H](c2ccccc2)N(C(=O)C2CCCCC2)[C@@H]1C(=O)O [II-105]	Emax	< 100%
COc1cc(F)ccc1CN[C@@H]1[C@@H](C(C)(C)C)[C@H](C(=O)O)N(C(=O)OC(C)C)[C@@H]1c1ccccc1 (racemic) [II-39]	Emax	100 to 200%
CCOc1ccc(Cl)cc1CN[C@@H]1[C@@H](C(C)(C)C)[C@H](C(=O)O)N(C(=O)C2CCCCC2)[C@@H]1c1ccccc1 (racemic) [II-9]	Emax	< 100%

Ask: Emax for COc1ccc(-c2ccc(C)nc2)cc1CN[C@H]1[C@H](C(C)(C)C)[C@@H](C(=O)O)N(C(=O)C2CCCCC2)[C@H]1c1ccccc1 [II-278] ?
Result: 100 to 200%

Ask: Try this compound next: COc1ccc(C(C)(C)C)cc1CN[C@H]1[C@H](C(C)(C)C)[C@@H](C(=O)O)N(C(=O)Cc2ccc(C)cc2)[C@H]1c1ccccc1 [II-204]
Result: 100 to 200%

Ask: Try this compound next: COc1ccc(C(C)(C)C)cc1CN[C@H]1[C@H](C(C)(C)C)[C@@H](C(=O)O)N(C(=O)CC2CCOc3ccccc32)[C@H]1c1ccccc1 (some centres unmarked) [II-213]
Result: 100 to 200%

###

# Target or test system: F508delCFTR (Homo sapiens, UniProt P13569, DEL508-508)
# Construct: expressed in transfected cells; host or cells: CFBE41o- human lung-derived epithelial cells (CFBE4lo-F508delCFTR-HRP), doxycycline-inducible
# Assay: Cell Surface Expression-Horse Radish Peroxidase (CSE-HRP) Assay;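 on Maximum % activity (without co-corrector): percent of the 2 µM on-plate positive control corrector response above DMSO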
# Format: cell-based
# Test settings: without co-corrector; maximum at any tested concentration, normalized to on-plate positive control; read-out: Maximum % activity (without co-corrector)
# Procedure: Cell Surface Expression-Horse Radish Peroxidase (CSE-HRP) Assay The development was achieved by expressing the F508delCFTR mutation along with a horseradish peroxidase (HRP) in the fourth exofacial loop, and then measuring the HRP activity using luminescence readout from these cells, CFBE4lo-F508delCFTR-HRP, that were incubated overnight with the test corrector compounds, either without or with the co-corrector. […] The raw counts from the experiment were analyzed using Accelrys® Assay Explorer v3.3. […]
// reported Emax for each item listed

As a guide, the following entries are already answered.
In [3]: df
Out[3]:
                                   molecule  result_value
0  COc1nc(C(C)(C)C)ccc1CN[C@H]1[C@H](C(C)(C)C)[C@@H](C(=O)O)N(C(=O)[C@H]2CCCCO2)[C@H]1c1ccccc1   100 to 200%
1  COc1c(CN[C@@H]2[C@@H](C(C)(C)C)[C@H](C(=O)O)N(C(=O)C3CCCCC3)[C@@H]2c2ccccc2)c(C)nn1C (racemic)        < 100%
2  COc1ncc(C2CC2)cc1CN[C@H]1[C@H](C(C)(C)C)[C@@H](C(=O)O)N(C(=O)C2CCCCC2)[C@H]1c1ccccc1C        > 200%
3  COc1cnc(N2CCCC2)cc1CN[C@H]1[C@H](C(C)(C)C)[C@@H](C(=O)O)N(C(=O)C2CCCCC2)[C@H]1c1ccccc1        < 100%

Next molecule, Emax to be filled in.
Ask: Emax for COc1ccc(C(C)(C)C)cc1CN[C@H]1[C@H](C23CC(C2)C3)[C@@H](C(=O)O)N(C(=O)C2CCCCC2)[C@H]1c1ccccc1 ?
Result: > 200%
